Reference source: patent US6403343B2

Documented growth rate across a set of compounds
- Test system: cultured cells of Taxus baccata LINN
- procedure-summary: Growth rate and taxane yield, 21-day shake culture of Taxus baccata cells with heavy metal compound, amine, antiethylene agent or Ethrel added
- Type: cell-based
- condition-info: 10^−2 M added at start, 21 days
Respond with the bare value in times.

compound | value-measured
NCCCCN | 1.8

Next item in the queue.
Can you look up the measured growth rate of `NCCCCNCCCN` for me?
2.0

* * *

Documented total yield of taxane across a set of compounds
- Tested on: cultured cells of Taxus baccata LINN
- procedure-summary: Growth rate and taxane yield, 21-day shake culture of Taxus baccata cells with heavy metal compound, amine, antiethylene agent or Ethrel added
- Type: cell-based
- condition-info: 10^−5 M added at start, 21 days
Respond with the bare value in mg/L.

Sample records with total yield of taxane:
compound | total yield of taxane, mg/L
[Cl][Co][Cl] [cobalt chloride] | 28.29
NCCCCN | 23.79
NCCCNCCCCNCCCN | 17.18

Next item in the queue.
Can you look up the measured total yield of taxane of `NCCCCNCCCN` for me?
33.17

* * *

- System: cultured cells of Taxus baccata LINN
- procedure-summary: Taxane-type diterpene yield and cell yield, shake culture of Taxus baccata cells with a jasmonic acid (or jasmone) added
- Format: cell-based
- condition-info: 100 μM added on 14th day, 7 more days
quantity-name: yield of baccatin III (mg/L)
Respond with the bare value in mg/L.

Sample records with yield of baccatin III:
compound | units-text | yield of baccatin III
CC/C=C\CC1C(=O)CCC1CC(=O)OC (stereo not drawn) [methyl jasmonate] | mg/L | 9.2
CC/C=C\C[C@H]1C(=O)CC[C@@H]1CC(=O)O | mg/L | 7.2

Next item in the queue.
Entry CC/C=C\C[C@H]1[C@@H](CC(=O)OC)CC[C@@H]1O [methyl cucurbate] , system cultured cells of Taxus baccata LINN: what yield of baccatin III was measured?
7.2

* * *

- System: cultured cells of Taxus baccata LINN
- procedure-summary: Growth rate and taxane yield, 21-day shake culture of Taxus baccata cells with heavy metal compound, amine, antiethylene agent or Ethrel added
- Type: cell-based
- condition-info: 10^−2 M added at start, 21 days
- Procedure: One gram (fresh weight) of the callus was inoculated to an Erlenmeyer flask containing 20 ml of liquid Woody Plant Medium to which the above-mentioned component was added to give the same concentration and shake culture was carried out with a rotary shaker (amplification of 25 mm, 100 rpm) and the callus was subcultured in every 21 days to accelerate the growth rate thereof. Then shake culture was carried out at 25° C. for 21 days. […]
Documented growth rate across a set of compounds
Respond with the bare value in times.

compound | growth rate, times
NCCCNCCCCNCCCN [spermin] | 2.1
[Cl][Co][Cl] [cobalt chloride] | 1.4

Next item in the queue.
Can you look up the measured growth rate of O=S([O-])([O-])=S.[Ag+].[Ag+] [silver thiosulfate, [Ag(S2O3)2]^3−] for me?
2.3
